The entries below come with measured IC50 values attached.
# study-system: WRN (Homo sapiens, UniProt Q14191)
# Construct: A His-tagged construct of WRN (AA S2-S1235) was produced and used for the ATPase assay; made in house; host or cells: Sf9 insect cells (baculovirus, pFastBac1)
# Sequence (Q14191 2-1235): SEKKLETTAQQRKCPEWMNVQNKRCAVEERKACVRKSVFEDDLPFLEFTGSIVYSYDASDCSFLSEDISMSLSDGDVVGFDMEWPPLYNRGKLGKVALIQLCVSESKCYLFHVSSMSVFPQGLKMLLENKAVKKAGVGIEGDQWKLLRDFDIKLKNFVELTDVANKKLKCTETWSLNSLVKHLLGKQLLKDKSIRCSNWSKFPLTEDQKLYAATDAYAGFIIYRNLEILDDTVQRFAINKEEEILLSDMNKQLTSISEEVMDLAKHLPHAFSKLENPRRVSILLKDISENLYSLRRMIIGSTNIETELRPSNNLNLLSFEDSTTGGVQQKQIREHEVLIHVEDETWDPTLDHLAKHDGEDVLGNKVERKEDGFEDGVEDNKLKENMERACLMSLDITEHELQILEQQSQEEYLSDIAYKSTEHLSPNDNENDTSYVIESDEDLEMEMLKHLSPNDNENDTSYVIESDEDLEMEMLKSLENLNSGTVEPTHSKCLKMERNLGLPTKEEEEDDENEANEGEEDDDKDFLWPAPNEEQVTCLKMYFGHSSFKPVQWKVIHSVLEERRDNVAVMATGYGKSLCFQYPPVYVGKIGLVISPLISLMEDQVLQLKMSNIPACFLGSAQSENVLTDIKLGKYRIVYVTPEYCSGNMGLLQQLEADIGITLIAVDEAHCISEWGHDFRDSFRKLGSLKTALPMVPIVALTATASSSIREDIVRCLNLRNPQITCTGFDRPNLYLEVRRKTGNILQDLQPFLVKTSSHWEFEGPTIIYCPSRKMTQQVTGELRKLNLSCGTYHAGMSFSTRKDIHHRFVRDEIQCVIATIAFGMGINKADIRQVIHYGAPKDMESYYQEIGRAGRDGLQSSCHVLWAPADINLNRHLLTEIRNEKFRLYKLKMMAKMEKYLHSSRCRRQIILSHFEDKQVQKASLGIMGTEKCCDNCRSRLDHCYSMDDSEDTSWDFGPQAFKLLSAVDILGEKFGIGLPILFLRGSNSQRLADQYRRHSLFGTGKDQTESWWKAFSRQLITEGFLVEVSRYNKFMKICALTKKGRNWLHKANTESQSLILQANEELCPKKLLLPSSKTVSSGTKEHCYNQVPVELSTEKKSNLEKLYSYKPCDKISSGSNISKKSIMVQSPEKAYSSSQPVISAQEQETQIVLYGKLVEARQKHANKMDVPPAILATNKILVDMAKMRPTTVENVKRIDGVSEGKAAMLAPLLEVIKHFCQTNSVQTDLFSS
# test: WRN ATPase activity assay (ADP-Glo)
# Type: biochemical
# condition-summary: 1-hr pre-incubation with enzyme; 25 nM forked dsDNA, 100 μM ATP, 1 nM WRN; geometric mean of at least 2 replicates

These solved cases illustrate the format of a correct answer.
>>> df
                                   compound  recorded_endpoint  reported_result
0  C=CC(=O)Nc1ccccc1-c1c(CC)n(CC(=O)Nc2ccc(C(F)(F)F)cc2)c2nc(C)c(-c3ccccc3)n2c1=O [Example 5]               IC50    100 to 500 nM
1  C=CC(=O)Nc1ccccc1-c1c(C)nc2n(CC(=O)Nc3ccc(C(F)(F)F)cc3)c(CC)c(-c3ccc(C(=O)NC)nc3)c(=O)n12 [Example 10]               IC50         < 100 nM
2  C=CC(=O)Nc1ccccc1-c1c(C)nc2n(CC(=O)Nc3ccc(C(F)(F)F)cc3)c(CC)c(C)c(=O)n12 [Example 8]               IC50         < 100 nM

Next, consider the following compound.
Give recorded IC50 with WRN (Homo sapiens, UniProt Q14191) for the following compound: C=CC(=O)Nc1ccccc1-c1c(CC)n(CC(=O)Nc2ccc(C(F)(F)F)cc2)c2nc(C)c(C)n2c1=O [Example 1]
100 to 500 nM
